Attribution: patent US20250186437A1

- Tested on: MOLM-13 cells
- test_name: MOLM-13 Cell Proliferation Assay (indicator of DHODH inhibition)
- Assay type: cell-based
- measurement_parameters: Homo sapiens, 72 Hours of culture, CellTiter-Glo, no uridine
- Description: The following assay was conducted to measure proliferation of MOLM-13 cells in the presence of each compound studied. […] On day 1, Log-phase growing Molm-13 Cells were counted and diluted to 10^5 cells/mL in RPMI 1640 medium+10% FBS • 3. […] The plates were then read by ViewLux (Speed-fast, Gain-High, Bining-1X, 5 seconds).
Classify: class 1 when IC50 is strictly less than 5 nM; class 0 when IC50 is not.

> print(dat)
                                   compound      cat
1  COc1ccc(C2c3[nH]c4cc(F)c(Cl)cc4c3CCN2c2ncc(F)cn2)cn1 (stereo not drawn)  class 0
2  Cc1ccc(C2c3[nH]c4cc(F)c(Cl)cc4c3CCN2c2nc(C)cc(C(F)(F)F)n2)cc1 (stereo not drawn)  class 1
3  N#Cc1ccc(C2c3[nH]c4ccc(Cl)c(F)c4c3CCN2c2nccc(C(F)(F)F)n2)cc1 (stereo not drawn)  class 0

Could you now look at the following compound, please?
# input Find out if reported IC50 for Cc1nc(N2CCc3c([nH]c4cc(F)c(Cl)cc34)C2c2cccc(F)c2F)nc(C)c1F (stereo not drawn) is less than 5 nM
# output class 1
